Molecular target: human Claudin-6 (CLDN6) (human) (UniProt P56747)
Experiment: FACS, 0.3 ug Ab, 293T clone expressing human CLDN6 (2nd Ab only 768.07)
measurement.label: FACS fluorescence

>>> value_reported("AB4-6 (antibody, V domains shown, humanized) VH: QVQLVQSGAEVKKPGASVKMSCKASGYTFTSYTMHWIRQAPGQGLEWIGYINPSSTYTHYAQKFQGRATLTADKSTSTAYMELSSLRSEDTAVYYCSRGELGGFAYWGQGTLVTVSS VL: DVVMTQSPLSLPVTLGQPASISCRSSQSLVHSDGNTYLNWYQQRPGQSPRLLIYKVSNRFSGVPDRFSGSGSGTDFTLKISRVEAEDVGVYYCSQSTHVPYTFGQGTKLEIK")
10800
>>> value_reported("AB1-8 (antibody, V domains shown, humanized) VH: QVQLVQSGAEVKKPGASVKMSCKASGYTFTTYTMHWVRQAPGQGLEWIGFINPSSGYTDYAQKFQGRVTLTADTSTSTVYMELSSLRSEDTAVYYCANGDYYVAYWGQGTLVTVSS VL: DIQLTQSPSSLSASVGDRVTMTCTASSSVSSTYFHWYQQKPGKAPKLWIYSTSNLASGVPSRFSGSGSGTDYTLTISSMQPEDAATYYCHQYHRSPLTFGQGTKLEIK")
98800
